The values you see were collected from PubChem BioAssay (NCI).

Tested on: KM12 colon
ASSAY NAME: NCI-60 one-dose screen, 48 h (100 = growth as untreated, 0 = no growth, -100 = all killed)
TEST CONDITIONS: 10 µM unless noted
Compounds without any hit were thinned out: in the full panel of roughly 83,000, 20% have a hit.
METRIC: growth (%)
Write it as a number; the unit % goes unstated.

Worked examples follow.
Cc1ccc(C2=Nc3c(ccc4c(C)c(C)c(=O)oc34)OC2)cc1: 97.8
Cc1cc(=O)oc2cc(OCCn3c(C)nn(-c4ccc(Cl)cc4)c3=O)ccc12: 31.4
CN(C)CCCNc1nn2c(=O)c3ccccc3nc2c2ccccc12: 66.1
CCOC(=O)/C=C1/SC(=Nc2ccc(C#N)cc2)N(Cc2ccco2)C1=O: 60.9
Cc1cc(=O)[nH]c(/C(=N/Nc2ccccc2)C(=O)c2ccc(Cl)cc2)n1: 102

Request: State the recorded growth for this entry: COc1ccc(C2CC(c3ccc(Nc4ccnc5cc(Cl)ccc45)cc3)=NN2C(C)=O)cc1 (stereo not drawn)
Result: 59.3

Request: Which value of growth has been reported for O=C(Oc1cccc2ccccc12)c1ccccc1C(=O)c1ccccc1 in the records?
Result: 92.2

Request: If you can, please state the reported growth value of N#CC1c2ccccc2C=CN1C(=O)N(c1ccccc1)c1ccccc1 (stereo not drawn) .
Result: 102

====

Reported growth is given for each of the following compounds.
Test system: NCI-H322M lung
ASSAY NAME: NCI-60 one-dose screen, 48 h (100 = growth as untreated, 0 = no growth, -100 = all killed)
TEST CONDITIONS: 10 µM unless noted
This is part of a sample that, as a whole, favours compounds with a hit. Of some 83,000 tested, about 20% had one in any assay. Active and inactive are the calls of the source. The calls were made as follows: active = growth percent below 10; inactive = the rest.

CC(=O)N1N=C(c2ccc(Nc3ccnc4cc(Cl)ccc34)cc2)CC1c1ccc(Cl)cc1 (stereo not given): 96.3% (inactive)
Cc1cnc2nc(-c3ccc(N(C)C)cc3)cn2c1: 110% (inactive)
Cc1cn(C(C=O)OC(C=O)CO)c(=O)[nH]c1=O (stereo not given): 106% (inactive)
O=C(Nc1ccc(Cl)cc1)Nc1nc2ccc(OC(F)(F)F)cc2o1: 113% (inactive)

Here's the next entry for you.
Request: Param item = COc1ccc2c(c1)c(CC(=O)[Se]C)c(C)n2C(=O)c1ccc(Cl)cc1 ; retrieve measured growth.
Result: 55.8% (inactive)

====

// growth lookup, one value per entry
System: MDA-MB-435 melanoma
ASSAY NAME: NCI-60 one-dose screen, 48 h (100 = growth as untreated, 0 = no growth, -100 = all killed)
TEST CONDITIONS: 10 µM unless noted
About 83,000 compounds went through this panel and 20% of them were active in at least one assay; those are over-represented in the sample as a whole. Activity calls are given as the source filed them. How the source made its calls: active means growth percent below 10; inactive means the rest.

Please review the entries below; each comes with its answer.
O=C(CN1CCN(c2ccc(Cl)cc2)CC1)N1CCN(c2nnc(-c3ccc(Cl)cc3)c(-c3ccc(Cl)cc3)n2)CC1: 73.4% (inactive)
C/C(=C\CCc1ccsc1)CC/C=C(\C)CCCN1CCSCC1: 85.9% (inactive)
O=C1OC(Oc2ccccc2)(c2ccccc2)c2ccccc21 (stereo unspecified): 102% (inactive)
O=C1c2cccc(NCCN=Cc3ccccc3O)c2C(=O)c2c(NCCN=Cc3ccccc3O)cccc21: 24.7% (inactive)

Request: So what does the record say about growth for CC(=O)Nc1ccc(C(=O)COc2cccc(/C=C3\CCc4ccccc4C3=O)c2)cc1 ?
Result: 85.8% (inactive)

Request: Which growth is reported for this compound? O=C1NC(=S)S/C1=C\c1cc(Br)ccc1O
Result: 105% (inactive)

Request: For the compound CN1CCC[C@@H]1CCO[C@](C)(c1ccccc1)c1ccc(Cl)cc1 , what growth is on record?
Result: 49.8% (inactive)

Request: Sample CCCCN=C(N)c1ccc(OCCSCCOc2ccc(C(N)=NCCCC)cc2)cc1 — what was its growth?
Result: 35.5% (inactive)

Request: Find the recorded growth belonging to Cc1cc(C)cc(S(=O)(=O)n2ccc(-c3ccc4c(c3)CCC(C)(C)O4)n2)c1 and report it.
Result: 93.8% (inactive)

Request: Form field: reported growth of COc1ccc(-n2cnc3cc(C(=O)N4CCCCC4)ccc32)cc1
Result: 102% (inactive)

Request: Need growth, item CC1c2ccccc2-c2ccccc2N1C (stereo unspecified)
Result: 119% (inactive)

====

Test system: HOP-62 NSCLC
ASSAY NAME: NCI-60 one-dose screen, 48 h
TEST CONDITIONS: 10 µM unless noted
This is part of a sample that, as a whole, favours compounds with a hit. Of some 83,000 tested, about 20% had one in any assay. The source made the active and inactive calls. Rule for the calls: active = growth percent below 10; inactive = the rest.
Pick one: YES (active), NO (inactive)

Example entries and their recorded answers appear below.
N[C@H](CS)C(=O)O: NO
CCN(CC)CCOCC[C@H]1CC[C@H]2[C@@H]3[C@H](C)Cc4cc(OS(N)(=O)=O)ccc4[C@H]3CC[C@]12C: YES
Nc1ccccc1-c1ccn[nH]1: NO
O=C1Nc2ccc(Cl)cc2/C1=C/c1cccs1: NO
COc1cc2c(cc1OC)C(CC1(O)CCCCC1)N(S(=O)(=O)c1ccc(C)cc1)CC2 (stereo not given): NO
COc1ccc(/C=C/C(=O)c2cccc(NS(C)(=O)=O)c2)cc1: NO

Request: Identify the outcome logged in this assay for the compound shown: C/C(=C\CCc1ccoc1)CC/C=C(\C)CCCN1CCSCC1
Result: NO

Request: Call for entry COc1ccc(-c2cc(-c3nnc(SCC(=O)Nc4ccc(C(C)=O)cc4)n3-c3ccccc3)c3ccccc3n2)cc1OC :
Result: NO

Request: What is the recorded call for this compound in the test? COc1ccc(C2=NN(C(C)=O)C(c3c(C)nn(-c4ccccc4)c3N3CCOCC3)C2)cc1 (stereo not given)
Result: NO

Request: So what was the verdict on O=C(COc1cccc(/C=C2\Oc3ccc4ccccc4c3C2=O)c1)c1ccc(Cl)cc1 in this test?
Result: NO

Request: Recorded test call requested for NS(=O)(=O)N(c1cc(C(F)(F)F)cc(C(F)(F)F)c1)C1CCN(Cc2ccc(C(F)(F)F)cc2)CC1
Result: NO

====

System: ACHN renal
ASSAY NAME: NCI-60 one-dose screen, 48 h
TEST CONDITIONS: 10 µM unless noted
Compounds without any hit were thinned out: in the full panel of roughly 83,000, 20% have a hit. The source made the active and inactive calls. The calls were made as follows: active = growth percent below 10; inactive = the rest.
Pick from Yes (active), No (inactive) when you respond.

CC(=O)N1N=C(c2ccc(Nc3ccnc4cc(Cl)ccc34)cc2)CC1c1ccc(Cl)cc1 (centres undefined): No
Clc1ccc(C2c3ccccc3-c3nccn32)c(Cl)c1 (centres undefined): No
Cc1[nH]c(=O)[nH]c(=O)c1CCSSCCc1c(C)[nH]c(=O)[nH]c1=O: No
NC(=O)NS(=O)(=O)c1ccc(N2N=C(C(F)(F)F)CC2c2cc(C(F)(F)F)cc(C(F)(F)F)c2)cc1 (centres undefined): No
Cc1ccc(/C=C/C(=O)c2ccc(F)cc2)s1: No

# evaluate next
Request: Which outcome was assigned to O=C(NCCCl)NCCN1c2nc3ccccc3cc2Sc2cc3ccccc3nc21 in this test?
Result: No

====

System: SNB-19 CNS
ASSAY NAME: NCI-60 one-dose screen, 48 h
TEST CONDITIONS: 10 µM unless noted
This is part of a sample that, as a whole, favours compounds with a hit. Of some 83,000 tested, about 20% had one in any assay. Activity calls are given as the source filed them. The calls were made as follows: active = growth percent below 10; inactive = the rest.
Use one of these outcomes when replying: 1 (active), 0 (inactive)

Worked examples follow.
CC(=O)Nc1c(Cl)cc2c(c1Cl)Cc1cc([N+](=O)[O-])ccc1-2: 0
CCCCN=C(N)c1ccc(OCCSCCOc2ccc(C(N)=NCCCC)cc2)cc1: 0
O=C1Nc2ccc(C(=O)O)c(O)c2C1=O: 0
CC(NC(N)=S)c1ccccc1 (configuration not stated): 0
CCOc1nc(-c2ccco2)n2nc(-c3ccco3)cc2n1: 0
CCOC(=O)c1cnc2c(C)cc(C)cc2c1NCCCN(C)C: 0
O=C(CSc1nnc(-c2cc(-c3ccccc3)nc3ccccc23)o1)c1ccc(Br)cc1: 0
CCCCCCCCCCOC(C)=O: 0

Request: Recorded call for COc1ccc(C(=O)COc2ccc(/C=C3\Oc4ccc5ccccc5c4C3=O)cc2)cc1 ?
Result: 0

Request: Hi, do you know how Cc1csc(C#Cc2cncc(O)c2)n1 came out in this test?
Result: 0

Request: For this compound, state the assay outcome: CC(C)CC1NC(=O)C(CCCN)NC(=O)C(C(C)C)NC(=O)C2CCCN2C(=O)C(Cc2ccccc2)NC(=O)C(CC(C)C)NC(=O)C(CCCN)NC(=O)C(C(C)C)NC(=O)C2CCCN2C(=O)C(Cc2ccccc2)NC1=O (configuration not stated)
Result: 1

Request: Called result for COc1cc(-c2n[nH]nc2-c2ccccn2)cc(OC)c1OC
Result: 0

Request: Per the assay record, what outcome was assigned to COC(=O)CC1=C(c2ccc([N+](=O)[O-])cc2)CCC1=O ?
Result: 0

Request: // return assay outcome for CC(C)=CCCC(C)c1ccc(C)c2c1OCN(CC1CCNCC1)C2 (configuration not stated)
Result: 0

Request: Test call, this compound: Nc1nc(Nc2ccccc2SSc2ccccc2Nc2nc(N)nc(C(Cl)(Cl)Cl)n2)nc(C(Cl)(Cl)Cl)n1
Result: 0

Request: GET /call?item= O=C(/C=C/c1ccc(C(F)(F)F)cc1)c1ccc(Nc2nc(NCCO)nc(NCCO)n2)cc1 returns the recorded outcome of this test.
Result: 0

Request: State the result this test recorded for N#Cc1c(-c2ccccc2)cc(-c2ccccc2)n(CCCC(=O)O)c1=O .
Result: 0

Request: Please let me know the test result on file for CCOC(=O)Nc1ccc2c3c(cccc13)-c1ccccc1-2 .
Result: 0
